Assignment: determine reported LIVER for the given compounds.
- Organism: Rattus norvegicus
- TEST_DESCRIPTION: Open TG-GATES - Regimen: Daily Repeat
- Format: toxicity, organism-based, Sprague-Dawley
- Design: regimen Daily Repeat, gender Male, age 6 weeks
- DETAILS: in vivo, po, 0 mg/kg, 72 h, tissue Liver, route gavage, dose level Control, time 3 day
Write the figure, then the unit, nothing else.

CC[C@H]1[C@@H]2C[C@H]3[C@@H]4N(C)c5ccccc5[C@]45C[C@@H]([C@@H]2[C@H]5O)N3[C@@H]1O [AJMALINE]    10.3 g
CC(C)N(CCC(C(N)=O)(c1ccccc1)c1ccccn1)C(C)C (stereo not given) [DISOPYRAMIDE]    11 g
OCCOCCN1CCN(C(c2ccccc2)c2ccc(Cl)cc2)CC1 (stereo not given) [HYDROXYZINE]    11.1 g
CCc1oc2ccccc2c1C(=O)c1cc(Br)c(O)c(Br)c1 [BENZBROMARONE]    11.1 g

Pending compound:
Name the reported LIVER value associated with the compound CCC1(c2ccccc2)C(=O)NC(=O)NC1=O [PHENOBARBITAL]
11.2 g
